Where these numbers come from: patent US10202349B2

- System: HCT-116
- test.description: Cytotoxic activity in vitro, SRB
- Format: cell-based, human
- Procedure: Cytotoxic activity tests in-vitro. A measure of the cytotoxic activity of bis-acridines are the EC50 (concentration of studied compounds at which 50% inhibition of proliferation of tumorous is observed) of the evaluated compounds that inhibit the growth of 50% of cells in relation to a control. The cytotoxic activity of the compounds was determined using SRB, recommended by the US National Cancer Institute (USA). […]
Measured EC50, listed per entry for reference.

{"columns": ["cpd.smiles", "EC50"],
 "data": [
  ["COc1ccc2c(c1)c(=O)c1c(NCCCN3CCN(CCCNc4c5ccccc5nc5cccc([N+](=O)[O-])c45)CC3)ccc3ncn2c31", "28 nM"],
  ["CN(CCCNc1c2ccccc2nc2cccc([N+](=O)[O-])c12)CCCNc1ccc2ncn3c4ccc(O)cc4c(=O)c1c23", "18 nM"],
  ["O=c1c2ccccc2[nH]c2c([N+](=O)[O-])ccc(NCCCN3CCN(CCCNc4c5ccccc5nc5cccc([N+](=O)[O-])c45)CC3)c12", "20 nM"],
  ["O=c1c2cc(O)ccc2n2nnc3ccc(NCCCN4CCN(CCCNc5c6ccccc6nc6cccc([N+](=O)[O-])c56)CC4)c1c32", "17 nM"],
  ["Cc1ccc([N+](=O)[O-])c2c(NCCCN(C)CCCNc3ccc4ncn5c6ccccc6c(=O)c3c45)c3ccccc3nc12", "65 nM"],
  ["Cc1ccc([N+](=O)[O-])c2c(NCCCNCCCNc3ccc(C)c4[nH]c5ccccc5c(=O)c34)c3ccccc3nc12", "85 nM"]
]}
